pIC50: −log10 of the molar value.
Collected pIC50 for UniProt:O00763 across several studies; compounds listed below.
MEASUREMENT_KIND: pIC50

> print(dat)
                                   compound  measurement.kind  readout.value
1  C[C@H](NC(=O)C1COCCN1)c1ccc(CN2Cc3ccc(OCC4CC4)cc3C(F)C2)cc1 (some centres unmarked)             pIC50           6.45
2  CC(=O)N[C@@H](C)c1ccc(O[C@@H]2CCN(c3cccc(N4CCCC4)n3)C2)cc1             pIC50           6.82
3  CC(=O)N[C@@H](C)c1ccc(O[C@@H]2CCN(c3ccnc(OCCc4ccccc4)c3)C2)cc1             pIC50           6.27
4  Cc1cc(C)c(-c2ccc(Cl)cc2)cc1C1=C(O)C2(CCCOC2)NC1=O (centres unmarked)             pIC50           6.09
5  C[C@H](NC(=O)C1CCC1)c1ccc(CN2CCc3cc(OCC4CC4(F)F)ccc3C2)cc1 (some centres unmarked)             pIC50           7.42
6  COc1ccccc1C(Cn1c(=O)n(-c2ccc(C(=O)O)cc2OC)c(=O)c2c(C)c(-c3ncco3)sc21)OC1CCOCC1 (centres unmarked)             pIC50           7.99
7  C[C@H](NC(=O)c1cncs1)c1ccc(O[C@@H]2CCN(c3ccc(OCC4CC4)cc3)C2)cc1             pIC50           7.77
8  CSc1ccc(N2CCC(Oc3ccc([C@H](C)NC(C)=O)cc3)C2)nc1 (some centres unmarked)             pIC50           6.41
